Assign residual activity to each entry below.
Molecular target: Ribosomal protein S6 kinase alpha-3 (Homo sapiens) (UniProt P51812)
Sequence (P51812 whole entry): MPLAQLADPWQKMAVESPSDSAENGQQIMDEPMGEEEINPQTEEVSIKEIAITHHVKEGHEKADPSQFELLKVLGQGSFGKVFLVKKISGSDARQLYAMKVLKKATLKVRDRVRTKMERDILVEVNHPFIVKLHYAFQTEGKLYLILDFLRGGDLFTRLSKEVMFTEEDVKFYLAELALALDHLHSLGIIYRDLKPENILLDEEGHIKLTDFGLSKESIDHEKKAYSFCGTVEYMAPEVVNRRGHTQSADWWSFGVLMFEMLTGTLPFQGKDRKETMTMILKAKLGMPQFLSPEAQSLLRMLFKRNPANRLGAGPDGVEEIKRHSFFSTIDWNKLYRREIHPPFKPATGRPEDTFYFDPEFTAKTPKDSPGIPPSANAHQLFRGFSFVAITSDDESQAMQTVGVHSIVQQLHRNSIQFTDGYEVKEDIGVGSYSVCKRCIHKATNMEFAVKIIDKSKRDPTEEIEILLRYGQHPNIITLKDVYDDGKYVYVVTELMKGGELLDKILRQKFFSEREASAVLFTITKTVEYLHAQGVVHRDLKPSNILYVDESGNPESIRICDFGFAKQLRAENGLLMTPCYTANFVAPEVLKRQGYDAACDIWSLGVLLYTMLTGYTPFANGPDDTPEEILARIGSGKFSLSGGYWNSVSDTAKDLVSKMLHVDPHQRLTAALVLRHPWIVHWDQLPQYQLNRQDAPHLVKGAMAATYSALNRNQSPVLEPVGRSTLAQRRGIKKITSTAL
Details: at 10 µM
Please give a number only; it is taken to be in %.

query: Please look up its residual activity: N#Cc1cnc2cnc(NCc3cccnc3)cc2c1Nc1ccc(F)c(Cl)c1
result: -1

query: Record request: residual activity value, item COc1ccc(CNc2nc(N(CCO)CCO)nc3c2ncn3C(C)C)cc1
result: 22

query: What does the data say about its residual activity? Entry: Cc1cccc(-c2[nH]c(C(C)(C)C)nc2-c2ccc3c(c2)OCO3)n1
result: 47

query: # input compound: Ic1cccc(CSc2nnc(-c3ccncc3)o2)c1 ; wanted: its residual activity
result: 28

query: Dear colleague, I am looking for the recorded residual activity of the following compound: O=C(Nc1cccc(Nc2cc(Nc3cccc(C(F)(F)F)c3)ncn2)c1)C1CC1
result: 66

query: Tell me the measured residual activity of O=[N+]([O-])c1ccc(-c2nc(-c3ccc(F)cc3)c(-c3ccncc3)[nH]2)cc1 , please.
result: 62

query: Which residual activity reading was recorded for the compound Nc1nc(Nc2ccc(S(N)(=O)=O)cc2)nn1C(=S)Nc1c(F)cccc1F ?
result: -1

query: If you can, please state the reported residual activity value of c1ccc(-c2n[nH]c3c2oc2ccccc23)cc1 .
result: 44

query: Requested field: residual activity. Item: Cc1cc2ncc(-c3ccccc3)nc2cc1C
result: 40

query: So what's the measured residual activity for this one? COc1cc2ncnc(Nc3ccc(NC(=O)c4ccccc4)cc3)c2cc1OC
result: 40

query: Given the entry COc1cc2ncnc(Nc3ccc(Oc4ccccc4)cc3)c2cc1OC , report its measured residual activity.
result: 126

query: Entry COc1cc2ncnc(N3CCN(C(=O)Nc4ccc(Oc5ccccc5)cc4)CC3)c2cc1OC has what residual activity?
result: 65

query: Give the measured residual activity of CO[C@H]1C[C@@H]2CC[C@@H](C)[C@@](O)(O2)C(=O)C(=O)N2CCCC[C@H]2C(=O)O[C@H]([C@H](C)C[C@@H]2CC[C@@H](O)[C@H](OC)C2)CC(=O)[C@H](C)/C=C(\C)[C@@H](O)[C@@H](OC)C(=O)[C@H](C)C[C@H](C)/C=C/C=C/C=C/1C .
result: 55

query: Consider the compound shown here: CCN(CC)CCCCN1c2ccccc2Oc2ccc(Cl)cc21 What is its recorded residual activity?
result: 64

query: Reported residual activity, compound Cc1nc2cc3nc(-c4cccs4)cnc3cc2n1C : ____
result: 75

query: // residual activity lookup, key: O=C(Nc1cccc(Nc2nccc(Nc3cccc(C(F)(F)F)c3)n2)c1)C1CC1
result: 27

query: Which value of residual activity has been reported for O=C1NC(=O)/C(=C/c2ccc3c(c2)OC(F)(F)O3)S1 in the records?
result: 35

query: Recorded residual activity for Cc1cncc2cccc(S(=O)(=O)N3CCCN(C(=O)CN)C[C@H]3C)c12 , please?
result: 23

query: Fill in the blank: the reported residual activity of Oc1c2ccccc2c2c3c(cccc13)N=N2 is ____.
result: 32

query: Fill blank: measured residual activity of the compound O=C1NC(=O)c2cc(Nc3ccc(F)cc3)c(Nc3ccc(F)cc3)cc21 is ____.
result: 77

query: Could you tell me which residual activity is on file for COc1cc2ncc(-c3ccccc3)nc2cc1OC ?
result: 25
